STUDY TARGET: Vascular endothelial growth factor receptor 1 (Homo sapiens) (UniProt P17948);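 note: values are mean percent inhibition of FLT1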
Sequence (P17948 whole entry): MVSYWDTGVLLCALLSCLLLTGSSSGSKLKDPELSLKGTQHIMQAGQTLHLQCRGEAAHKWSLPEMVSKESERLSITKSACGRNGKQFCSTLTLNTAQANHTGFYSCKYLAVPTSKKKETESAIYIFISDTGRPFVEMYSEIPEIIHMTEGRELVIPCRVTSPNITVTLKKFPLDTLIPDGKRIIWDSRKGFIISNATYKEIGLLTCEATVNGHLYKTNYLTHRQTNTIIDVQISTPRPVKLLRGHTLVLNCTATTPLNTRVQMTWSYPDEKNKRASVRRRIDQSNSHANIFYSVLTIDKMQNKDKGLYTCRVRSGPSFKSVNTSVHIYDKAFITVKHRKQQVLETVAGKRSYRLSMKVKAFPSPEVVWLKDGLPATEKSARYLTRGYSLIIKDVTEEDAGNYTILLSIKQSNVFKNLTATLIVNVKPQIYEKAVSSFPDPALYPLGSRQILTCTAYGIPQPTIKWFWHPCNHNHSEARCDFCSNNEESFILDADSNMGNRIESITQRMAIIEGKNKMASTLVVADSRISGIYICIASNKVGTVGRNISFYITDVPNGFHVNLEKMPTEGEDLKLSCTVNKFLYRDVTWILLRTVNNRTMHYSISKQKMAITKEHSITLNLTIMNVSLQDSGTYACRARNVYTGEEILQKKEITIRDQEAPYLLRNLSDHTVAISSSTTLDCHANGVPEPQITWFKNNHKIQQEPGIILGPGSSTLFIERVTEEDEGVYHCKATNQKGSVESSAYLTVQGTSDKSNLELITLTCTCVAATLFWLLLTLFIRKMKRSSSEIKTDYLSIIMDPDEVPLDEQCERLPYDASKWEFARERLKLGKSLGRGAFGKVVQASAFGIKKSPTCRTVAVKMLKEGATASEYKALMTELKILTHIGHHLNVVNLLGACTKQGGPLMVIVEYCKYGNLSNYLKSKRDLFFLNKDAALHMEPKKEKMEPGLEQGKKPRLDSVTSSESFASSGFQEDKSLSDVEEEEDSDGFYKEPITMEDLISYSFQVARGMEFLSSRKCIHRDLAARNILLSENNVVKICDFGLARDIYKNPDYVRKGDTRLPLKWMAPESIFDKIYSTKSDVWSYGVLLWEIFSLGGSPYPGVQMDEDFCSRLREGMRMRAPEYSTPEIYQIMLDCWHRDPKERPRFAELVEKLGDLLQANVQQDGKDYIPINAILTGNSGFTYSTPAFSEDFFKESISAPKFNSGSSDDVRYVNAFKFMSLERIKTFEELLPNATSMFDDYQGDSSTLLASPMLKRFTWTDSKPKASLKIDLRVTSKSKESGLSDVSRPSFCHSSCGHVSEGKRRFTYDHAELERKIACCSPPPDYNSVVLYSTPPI
MEASUREMENT CONTEXT: at 0.1 µM
inhibition values for the molecules below.
MEASUREMENT KIND: inhibition (%)

In [3]: df
Out[3]:
                                   molecule                              study_target  measurement_kind  assay_result
0  CCN1CCC(C(=O)Nc2n[nH]c3nnc(-c4cccc(F)c4F)cc23)CC1  Vascular endothelial growth factor receptor 1 (Homo sapiens) (UniProt P17948)        inhibition          0.76
1  CN(C)CCNC(=O)Nc1ccc(N(C)c2ccnc(Nc3ccc(CS(C)(=O)=O)cc3)n2)cc1  Vascular endothelial growth factor receptor 1 (Homo sapiens) (UniProt P17948)        inhibition          4.18
2  O=C(O[C@H]1CN[C@H](C#Cc2cc3ncnc(Nc4ccc5c(cnn5Cc5ccccc5)c4)c3s2)C1)N1CCOCC1  Vascular endothelial growth factor receptor 1 (Homo sapiens) (UniProt P17948)        inhibition         -2.71
3  Cc1cc(O)cc(C)c1/C=C/c1cncc(C(=O)OC(C)(C)C)c1  Vascular endothelial growth factor receptor 1 (Homo sapiens) (UniProt P17948)        inhibition          2.02
4  CC1=C(C(=O)Nc2ccc3[nH]ncc3c2)C(c2ccc(F)cc2)N=C(c2ccc(C(F)(F)F)nc2)N1 (centres undefined)  Vascular endothelial growth factor receptor 1 (Homo sapiens) (UniProt P17948)        inhibition          2.08
5  COc1cc(N2CCN(C(C)C)CC2)ccc1Nc1nc(Nc2cccc3ncccc23)c2cc[nH]c2n1  Vascular endothelial growth factor receptor 1 (Homo sapiens) (UniProt P17948)        inhibition          1.51
6  CS(=O)(=O)CCNCc1ccoc1-c1ccc2ncnc(Nc3ccc(OCc4ccccc4)cc3)c2c1  Vascular endothelial growth factor receptor 1 (Homo sapiens) (UniProt P17948)        inhibition          2.35
7  CN(c1ccc(NC(=O)NCCN2CCOCC2)cc1)c1ccnc(Nc2ccc(CS(C)(=O)=O)cc2)n1  Vascular endothelial growth factor receptor 1 (Homo sapiens) (UniProt P17948)        inhibition          13.6
8  COc1cccc(-n2ncc3c(N/N=C/c4ccc(C(=O)NCCN(C)C)cc4)ncnc32)c1  Vascular endothelial growth factor receptor 1 (Homo sapiens) (UniProt P17948)        inhibition          8.45
